- assayOverview: Rate of model dipeptide cleavage in PBS (HPLC / LC-MS)
- protocolConditions: buffer
observable: half-life at 1 mg/ml (min)
Number only, in min; omit the unit.

Look up half-life at 1 mg/ml for this compound: C[C@@H](O)[C@H](NC(=O)CNC(=O)[C@H](CCCNC(=N)N)NC(=O)[C@H](CO)NC(=O)[C@H](Cc1c[nH]cn1)NC(=O)CN(C)C(=O)C(C)(C)N)C(=O)N[C@@H](Cc1ccccc1)C(N)=O
9
